All values here come from patent US9745297B2.

- assay.target: RORγt (Homo sapiens, UniProt P51449)
- Sequence (P51449 269-508 limits assumed): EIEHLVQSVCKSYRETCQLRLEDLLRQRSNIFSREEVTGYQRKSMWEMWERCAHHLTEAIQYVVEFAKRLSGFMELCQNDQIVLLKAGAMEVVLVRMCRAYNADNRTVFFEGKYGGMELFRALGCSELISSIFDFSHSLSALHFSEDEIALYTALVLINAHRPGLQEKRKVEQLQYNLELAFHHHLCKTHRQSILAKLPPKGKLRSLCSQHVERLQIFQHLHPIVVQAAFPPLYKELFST
- assay.comment: RGA Assay: nuclear receptor transactivation assay, RORγt transactivation of a luciferase reporter
- assay.setup: transiently transfected HEK 293 cells (pGL4.3 luc2P/GAL4UAS, pBIND Gal4DBD hRORC LBD), 20-24 hours incubation, luciferase readout
- Procedure: A nuclear receptor transactivation assay was performed to quantitate the ability of test compounds to inhibit RORγt transactivation of a luciferase reporter. A similar assay is described in: Khan et al., Bioorganic & Medicinal Chemistry Letters 23 (2013), 532-536. The system uses transiently transfected HEK 293 cells cotransfected with two plasmids (pGL4.3, luc2P/GAL4UAS/Hygro, and pBIND, Ga14DBD hRORC LBD1-3). […] The plates were read on an Envision plate reader to measure luminescence signal. […]
assay.readout: IC50 (µM)

compound | IC50 (µM)
CNS(=O)(=O)c1ccc(CNC(=O)N2CC3(CCCC3)c3nc(-c4ccc(F)cc4C)ccc32)cc1 [Example 1] | 1.6

(1) CCS(=O)(=O)c1ccc(CNC(=O)N2CC(C)(C)c3cc(-c4c(OC)ncnc4C4CC4)ncc32)cc1 [Example 94]
(2) CCS(=O)(=O)c1ccc(CNC(=O)N2CC3(CCCC3)c3nc(-c4c(C(C)C)n[nH]c4C)ccc32)cc1 [Example 29]
Q) Higher IC50: 1 or 2 ? Write down the label attached to your selection.
A) 1
